I'd be grateful if you could share measured MIC for these entries.
Test system: C. difficile I-E
Assay: In vitro antibacterial activity, MIC (standard strain)
Type: cell-based
Settings: Clostridioides difficile; C. difficile I-E; 10^6 cells/ml; standard strain; read-out: MIC
Structures can show the parent of a compound that is named as a salt.
Numbers only, in µg/mL.

Examples from the recorded data:
| COMPOUND | VALUE_OBSERVED |
| --- | --- |
| CCn1cc(C(=O)O)c(=O)c2cc(F)c(N3CCNCC3)cc21 [NFLX, Norfloxacin, reference compound] | 50 |
| NCC1CCN(c2c(F)cc3c(=O)c(C(=O)O)cn(C4CC4)c3c2F)C1 (centres unmarked) [Example 1, hydrochloride] | 1.56 |
| CCNCC1CCN(c2c(F)cc3c(=O)c(C(=O)O)cn(C4CC4)c3c2F)C1 (centres unmarked) [Example 2, hydrochloride] | 0.78 |
| CCNCC1CCN(c2cc3c(cc2F)c(=O)c(C(=O)O)cn3C2CC2)C1.Cl (centres unmarked) [Example 7] | 12.5 |
| CC(C)NCC1CCN(c2c(F)cc3c(=O)c(C(=O)O)cn(C4CC4)c3c2F)C1.Cl (centres unmarked) [Example 11] | 3.13 |
| CNCC1CCN(c2c(F)cc3c(=O)c(C(=O)O)cn(C4CC4)c3c2F)C1 (centres unmarked) [Example 8, hydrochloride] | 1.56 |
| CNCC1CCN(c2cc3c(cc2F)c(=O)c(C(=O)O)cn3C2CC2)C1 (centres unmarked) [Example 9, hydrochloride] | 12.5 |

Q: Need MIC of CCCNCC1CCN(c2c(F)cc3c(=O)c(C(=O)O)cn(C4CC4)c3c2F)C1 (centres unmarked) [Example 10, hydrochloride] , thanks.
Result: 6.25

###

I'd be grateful if you could share measured concentration at 1 h for these entries.
Assay: Absorption and distribution: concentration in blood and organs after oral administration, bioassay by cup method
Format: in vivo
Settings: rat; rats, fasted, 10 mg/kg oral, lung, 1 hr after administration; Mean ± S.D. (n=5); read-out: Concentration in organs: Lung
Counter-ions that a name gives are not always drawn.
Answers are plain numbers, in ng/g.

| COMPOUND | concentration at 1 h, ng/g |
| --- | --- |
| CCNCC1CCN(c2c(F)cc3c(=O)c(C(=O)O)cn(C4CC4)c3c2F)C1 (centres unmarked) [Example 2, hydrochloride] | 2940 |

Pending compound:
Q: Need concentration at 1 h of CCNCC1CCN(c2c(F)cc3c(=O)c(C(=O)O)cn(C4CC4)c3c2Cl)C1 (centres unmarked) , thanks.
Result: 2660

###

Experiment: Absorption and distribution: concentration in blood and organs after oral administration, bioassay by cup method
Type: in vivo
Settings: rat; rats, fasted, 10 mg/kg oral, liver, 1/2 hr after administration; Mean ± S.D. (n=5); read-out: Concentration in organs: Liver
Structures can show the parent of a compound that is named as a salt.
ENDPOINT_LABEL: concentration at 0.5 h (ng/g)
Numbers only, in ng/g.

| COMPOUND | ENDPOINT_LABEL | VALUE_OBSERVED |
| --- | --- | --- |
| CCNCC1CCN(c2c(F)cc3c(=O)c(C(=O)O)cn(C4CC4)c3c2Cl)C1 (centres unmarked) [Example 13] | concentration at 0.5 h | 7780 |

Pending compound:
Q: Need concentration at 0.5 h of CCNCC1CCN(c2c(F)cc3c(=O)c(C(=O)O)cn(C4CC4)c3c2F)C1 (centres unmarked) [Example 2, hydrochloride] , thanks.
Result: 9480

// provenance: patent EP0183129A1
